# Tested on: M14
# test_summary: NCI tumour cell line growth inhibition, 48 h
The source made the active and inactive calls. No stated cut-off is given here; in the data, active = GI50 up to about 1.1 µM and inactive = higher.
Pick from class 1 (active), class 0 (inactive) when you respond.

The examples below pair each entry with its known result.
Hi, sorry to bother you, what did the test record for O=C(CO[N+](=O)[O-])OCC(=O)c1ccccc1 ?
class 0

Record: COc1ccc(O)cc1C(O)c1ccccc1 (configuration not stated)
class 0

Can you handle O=C1C(Cl)=C(NCCN2CCOCC2)C(=O)c2c(O)ccc(O)c21 next?
class 0

Again, but for Cc1cc(C)c(/C=C(\C(=C/c2c(C)cc(C)cc2C)[N+](=O)[O-])[N+](=O)[O-])c(C)c1
class 0

// repeat for C/C(=N\NC(N)=O)C(CN1CCCCC1)C(c1ccccc1)c1c(O)c2ccccc2oc1=O (configuration not stated) and report
class 0

What would you report for CCN(CC)CCN(C)c1ccc(CO)c2c1c(=O)c1ccccc1[s+]2[O-] (configuration not stated) ?
class 0

Field entry: Cc1cc(N(CCC#N)CCC#N)ccc1/C=C(\NC(=O)/C=C/c1ccccc1)NC(=O)Nc1ccccc1C
class 0

Another compound to look at: Cc1cc(NC(=O)NC(=O)c2ccccc2NC(=O)CN)ccc1Oc1ncc(Br)cn1
class 1

New cases:
Which outcome was assigned to COc1cc(CCc2ccc(OCCN(C)C)cc2)cc(OC)c1OC in this test?
class 0

Same lookup for N=c1c2ccccc2nc2oc3cc([N+](=O)[O-])ccc3n12 , please.
class 0

Could you do the same for Cc1ccc(/C=C2\NC(=S)NC2=O)cc1 , please?
class 0

Now this one: O=C(Nc1ccc(Cl)c(Cl)c1)C(=O)Nn1c(S)nc2ccccc2c1=O
class 0

Follow-up entry: Cn1c(=O)nc2n(-c3ccc(F)cc3)c3ccccc3nc-2c1=O
class 0

And the next one, COC(=O)c1cc2c3c(ccc2[nH]1)N(C(=O)c1cc2cc(OC)c(OC)c(OC)c2[nH]1)CC3CCl (configuration not stated) ?
class 0

Entry CCN(CC)CCN1CCc2c([nH]c3ccccc23)C1c1cccnc1 (configuration not stated) please
class 0

And CC(=O)Nc1ccc(COC(O)CN2CCCCC2)cc1[N+](=O)[O-] (configuration not stated) ?
class 0

###

# System: K562
# test_summary: NCI tumour cell line growth inhibition, 48 h
Active and inactive are the calls of the source. Rule as the data show it: active = GI50 up to about 1.1 µM and inactive = higher.
Outcomes you can answer with include only these: active, inactive

Worked set:
What outcome does the record of this test show for Cc1ccc2nc(C(=O)O)c(=O)[nH]c2c1 ?
inactive

Further, for CCOC1CN=C(Nc2cccc3ccccc23)S1 (stereo unspecified) ?
inactive

What about COc1cc2c(cc1OC)CC(=O)Nc1cc(OC)c(OC)cc1CC2 ?
inactive

Thanks! And Cn1c(=O)c2[nH]cnc2n(CC(N)=O)c1=O ?
inactive

---
Look up the recorded call for BrC1(c2ccccc2)C[n+]2c(-c3ccccc3)cc(-c3ccccc3)cc2-c2ccccc21 (stereo unspecified) in this test.
active

Continue with O=c1n(CC2CO2)c(=O)n(CC2CO2)c(=O)n1CC1CO1 (stereo unspecified)
inactive

###

# Test system: BT-549
# test_summary: NCI tumour cell line growth inhibition, 48 h
Active and inactive are the calls of the source. Rule as the data show it: active = GI50 up to about 1.1 µM and inactive = higher.
For each of the compounds below, state its GI50.

Reference set (5 entries):
Which measured GI50 belongs to COC(=O)C1=C(OC(=O)c2ccccc2)C(C(=O)OC)[C@]2(O)[C@@H](C(=O)OC)[C@H]1C[C@@H](c1ccccc1)[C@@H]2C(=O)OC (stereo not given in full) , tested on BT-549?
12.2 µM (inactive)

What do you get for O=c1c2cc([N+](=O)[O-])cnc2sn1-c1ccc(Br)cc1 ?
91.4 µM (inactive)

Queued: CC(C)C(OC(=O)c1cc(NC(=S)c2ccccc2)ccc1Cl)C(C)C
20.8 µM (inactive)

Moving on to CC(=O)O[C@H]1C(=O)[C@@]2(C)[C@H]([C@H](OC(=O)c3ccc([N+](=O)[O-])cc3)[C@]3(O)C[C@H](OC(=O)[C@H](O)[C@@H](NC(=O)c4ccccc4)c4ccccc4)C(C)=C1C3(C)C)[C@]1(OC(C)=O)CO[C@@H]1C[C@@H]2O
> 25 µM (inactive)

Okay, and CCOC(=O)Nc1ccc(S(=O)(=O)Nc2ccc(Br)cc2)cc1 ?
35.1 µM (inactive)

Each compound below has a recorded value; state its GI50.
1. c1ccc(CN[C@]23C4C5CC6C7C5C2C7[C@@](NCc2ccccc2)(C64)N3Cc2ccccc2)cc1 (stereo not given in full)
2. Cc1c(-c2ccccc2)c(C#N)c2nnn(-c3ccc(Cl)cc3)c(=O)n12
3. C[N+]1(CCCl)CC[N+](C)(CCCl)CC1 (stereo not given)
4. CCCCOC(=O)C1CN2C=CC=NC2=NC1(C(F)(F)F)C(F)(F)F (stereo not given)
5. N=c1oc2ccccc2cc1-c1nc2ccccc2c(=O)[nH]1

> 100 µM (inactive)
56.8 µM (inactive)
> 100 µM (inactive)
> 100 µM (inactive)
23.8 µM (inactive)
